Hey, just so you know, these numbers are from patent US4471131A.

For each record, write down the corresponding Plant Response Index (F).
- Tested on: Pennsylvania Smartweed
- Assay Text: post-emergence herbicidal activity, greenhouse
- Type: in vivo
- Condition Label: Table III; 2 WAT; 5.6 kg/h

Query: Output measured Plant Response Index (F) for this item: CC(C)OC(=O)CNCP(=O)(O)O[Si](c1ccccc1)(c1ccccc1)C(C)(C)C
Result: 3 (75-99% inhibition)

Query: Give the reported Plant Response Index (F) for this molecule. CC(C)(C)[Si](C)(C)OP(=O)(CNCC(=O)OCCc1ccccc1)O[Si](C)(C)C(C)(C)C [Ex. 10, Hydrate]
Result: 2 (50-74% inhibition)

Query: Check the records and state Plant Response Index (F) for CC(C)OC(=O)CNCP(=O)(O[Si](c1ccccc1)(c1ccccc1)C(C)(C)C)O[Si](c1ccccc1)(c1ccccc1)C(C)(C)C
Result: 3 (75-99% inhibition)

Query: Identify measured Plant Response Index (F) associated with CCOC(=O)CNCP(=O)(O)O[Si](c1ccccc1)(c1ccccc1)C(C)(C)C
Result: 2 (50-74% inhibition)

Query: Specify measured Plant Response Index (F) for CCCCOC(=O)CNCP(=O)(O)O[Si](c1ccccc1)(c1ccccc1)C(C)(C)C .
Result: 3 (75-99% inhibition)

###

- System: Velvetleaf
- Assay Text: post-emergence herbicidal activity, greenhouse
- Assay type: in vivo
- Condition Label: Table II; 2 WAT; 11.2 kg/h; formulated immediately prior to treatment
Measurement Name: Plant Response Index (C)

Query: For the compound CC(C)(C)[Si](C)(C)OC(=O)CNCP(=O)(O[Si](C)(C)C(C)(C)C)O[Si](C)(C)C(C)(C)C [Ex. 9] , give its reported Plant Response Index (C).
Result: 2 (50-74% inhibition)

Query: Provide Plant Response Index (C) value for the following compound: CC(C)(C)[Si](C)(C)OP(=O)(CNCC(=O)OCCc1ccccc1)O[Si](C)(C)C(C)(C)C [Ex. 10, Hydrate]
Result: 2 (50-74% inhibition)

Query: Report Plant Response Index (C), nothing else, for this compound: CC(C)OC(=O)CNCP(=O)(O)O[Si](c1ccccc1)(c1ccccc1)C(C)(C)C [Ex. 2]
Result: 3 (75-99% inhibition)

Query: Indicate the recorded Plant Response Index (C) value for this compound: CC(C)OC(=O)CNCP(=O)(O[Si](c1ccccc1)(c1ccccc1)C(C)(C)C)O[Si](c1ccccc1)(c1ccccc1)C(C)(C)C [Ex. 1]
Result: 0 (0-24% inhibition)

###

Can you tell me Plant Response Index (O) for the items I'm about to list?
- Tested on: Rice
- Assay Text: post-emergence herbicidal activity, greenhouse
- Assay type: in vivo
- Condition Label: Table III; 4 WAT; 5.6 kg/h; formulated in anhydrous tetrahydrofuran

Query: # return recorded Plant Response Index (O) for entry CCCCOC(=O)CNCP(=O)(O)O[Si](C)(C)C(C)(C)C [Ex. 3]
Result: 2 (50-74% inhibition)

Query: Consider the compound CC(C)(C)[Si](OP(=O)(O)CNCC(=O)O)(c1ccccc1)c1ccccc1 [Ex. 5] and give its recorded Plant Response Index (O).
Result: 0 (0-24% inhibition)

Query: // Input: CCOC(=O)CNCP(=O)(O)O[Si](c1ccccc1)(c1ccccc1)C(C)(C)C [Ex. 7] . Output its Plant Response Index (O) only.
Result: 3 (75-99% inhibition)

Query: Given CCCCOC(=O)CNCP(=O)(O)O[Si](c1ccccc1)(c1ccccc1)C(C)(C)C [Ex. 6] , respond with its Plant Response Index (O).
Result: 2 (50-74% inhibition)
